Catalogue of compounds with associated absolute recovery
assay: absolute recovery over mixed-bed multilayer solid-phase extraction; higher = better recovery; conditions: wastewater effluent; enrichment method: SPE
Value Type: absolute recovery (%)

> print(dat)
                                   compound         value.type  endpoint.unit  recorded.value
1   CSc1nc(NC2CC2)nc(NC(C)(C)C)n1 [Irgarol]  absolute recovery              %              97
2  CCc1cccc(C)c1N(C(=O)CCl)C(C)COC (stereo not given) [Metolachlor]  absolute recovery              %            90.6
3       CCCCOc1ccc(CC(=O)NO)cc1 [Bufexamac]  absolute recovery              %            83.3
4  CCCC(Cn1cncn1)c1ccc(Cl)cc1Cl (stereo not given) [Penconazol]  absolute recovery              %             100
5  CCS(=O)(=O)c1cccnc1S(=O)(=O)[N-]C(=O)Nc1nc(OC)cc(OC)n1 [Rimsulfuron]  absolute recovery              %              95
